Origin of values: PubChem BioAssay (NCI)

system: T-47D breast; test: NCI-60 one-dose screen, 48 h (100 = growth as untreated, 0 = no growth, -100 = all killed); conditions: 10 µM unless noted
The panel holds about 83,000 compounds, 20% with a hit somewhere; the sample as a whole holds those more often.
Please use the following growth ranges when assigning a class: label 0: < 40%; label 1: ≥ 40% and < 60%; label 2: ≥ 60%

// return the class label for "O=[N+]([O-])/C(=C\c1ccco1)c1ccccc1Cl"
label 0

// return the class label for "COc1ccc(-c2cc(-c3cc(OC)c(OC)c(OC)c3)c(C#N)c(=O)n2CCCCCC(=O)NO)cc1"
label 2

// return the class label for "Cc1cc(C(=O)Nc2cc(Nc3ncccc3-c3ncnc4nc[nH]c34)ccc2F)cc(C(F)(F)F)c1"
label 2

// return the class label for "CCOC(=O)C1=C(C)N=C2SC=C(c3ccccc3)N2[C@H]1c1cn[nH]c1-c1ccc(Cl)cc1"
label 0

// return the class label for "Cc1ccc(O)c(NC(=O)c2ccc(CNc3ccnc(C(F)(F)F)c3)cc2)c1"
label 2

// return the class label for CCOC(=O)C1=C(c2ccccc2)N=c2s/c(=C/c3ccc(Br)cc3)c(=O)n2C1c1ccc(O)cc1 (configuration not stated)
label 2

// return the class label for "C=C1C(=O)O[C@H]2[C@H]1CC/C(COC(=O)NCc1ccc(Cn3c(=O)sn(-c4ccc(OC)cc4)c3=O)cc1)=C\CC[C@@]1(C)O[C@@H]21"
label 0

// return the class label for "O=c1ccc2nc(C(F)(F)F)nn(-c3ccccc3)c-2c1"
label 0

// return the class label for "COc1ccc2cc(Cn3cc[n+](Cc4ccc5ccccc5c4)c3)ccc2c1"
label 0

// return the class label for Nc1c(C(=O)Nc2ccccn2)sc2nc3c(cc12)C(O)CCC3 (configuration not stated)
label 0

// return the class label for O=C(CCC(=O)c1nc2ncccc2[nH]1)NN1C(=O)CSC1c1ccc(Cl)cc1 (configuration not stated)
label 2

// return the class label for "CC1(C)CC[C@]2(C(=O)O)CC[C@]3(C)C(=CC[C@@H]4[C@@]5(C)C[C@@H](Cc6cn([C@@H]7O[C@H](CO)[C@@H](O)[C@H](O)[C@H]7O)nn6)[C@H](O)C(C)(C)[C@@H]5CC[C@]43C)[C@@H]2C1"
label 2

// return the class label for "COc1ccc(-c2oc(=O)ccc2-c2cc(OC)c(OC)c(OC)c2)cc1O"
label 1

// return the class label for "N#Cc1c(Nc2ccc(F)cc2)n[nH]c1-c1cccs1"
label 2

// return the class label for "NC(=S)N/N=C/c1cn(-c2ccccc2)nc1-c1cc2ccccc2oc1=O"
label 1

// return the class label for "CC(C)(C)c1cc(C=Nc2cccc(C(F)(F)F)c2)c(O)c(C(C)(C)C)c1"
label 2

// return the class label for "Cn1cc(C(=O)c2nc(-c3c[nH]c4ccc(Br)cc34)no2)c2cc(Br)ccc21"
label 2

// return the class label for COC(=O)C1=C(C)NC(C)=C(C(=O)OCC(C)C)C1c1ccccc1[N+](=O)[O-] (configuration not stated)
label 1

// return the class label for "Cc1ccc(/C=C(\C#N)C(=O)Nc2ncc(Cc3cc(Cl)ccc3Cl)s2)o1"
label 1

// return the class label for "CS(=O)(=O)Nc1cncc(-c2ccc3ncnc(Nc4ccc(F)c(Cl)c4)c3c2)c1"
label 0

// return the class label for "CCOC(=O)c1c(C)nc2ccccc2c1/C=C/c1ccc(OC)cc1"
label 0

// return the class label for "COc1ccc(C/C(C)=C(/c2ccc(OCCN3CCCCCC3)cc2)c2ccc(OC(=O)NCc3ccccc3)cc2)cc1"
label 1

// return the class label for "C[C@H]1[C@H](C)CC[C@]2(C(=O)O)CC[C@]3(C)C(=CC[C@@H]4[C@@]5(C)C[C@@H](Cc6cn([C@@H]7O[C@H](CO)[C@@H](O)[C@H](O)[C@H]7O)nn6)[C@H](O)C(C)(C)[C@@H]5CC[C@]43C)[C@H]12"
label 2

// return the class label for "COc1ccc(Nc2ncc(C(N)=O)c(NCCCNC(=O)C3CCC3)n2)cc1"
label 2

// return the class label for "c1ccc(CCc2ccccc2-c2cc(-c3ccccc3)on2)cc1"
label 1

// return the class label for "COc1ccc2cc(-c3cnc4nonc4n3)ccc2c1"
label 0

// return the class label for "COc1ccc(-c2ccc(-c3ccc(C(=N)N)cn3)s2)cc1"
label 2

// return the class label for "Fc1ccc(CNc2c3ccccc3nc3ccccc23)cc1"
label 0

// return the class label for Nc1n[nH]c2ccc([C@@H]3Nc4cc5[nH]ncc5cc4[C@H]4C5CCC(C5)[C@@H]34)cc12 (some centres not stated)
label 1

// return the class label for "CC/C=C1/C(=O)C=C[C@@H]1C/C=C\CCCC(=O)OC"
label 2

// return the class label for "CN1CCN(c2ccc3c(c2)nc(NNC(=O)c2cnccn2)c2cccn23)CC1"
label 0

// return the class label for "COc1cccc(Nc2ccnc3[nH]c4ccc([N+](=O)[O-])cc4c23)c1"
label 1

// return the class label for COc1ccc(C2CC(c3ccc(Nc4nc(Nc5ccc(F)cc5)nc(Nc5ccc(F)cc5)n4)cc3)=NN2C(C)=O)cc1 (configuration not stated)
label 2

====

Give measured growth for each item. Keep answers brief.
test system: MDA-MB-231 breast; assay: NCI-60 one-dose screen, 48 h (100 = growth as untreated, 0 = no growth, -100 = all killed); details: 10 µM unless noted
About 83,000 compounds went through this panel and 20% of them were active in at least one assay; those are over-represented in the sample as a whole.
Give just the number in %; leave the unit off.

Report growth for "Cc1[nH]c(/C=C/C(=O)c2ccc(C(F)(F)F)c(F)c2)c(C)c1C(=O)NCC(C)C"
99.4

Report growth for "O=C(O)c1cccc(N/C=C/C(=O)c2cc3cc(Br)ccc3oc2=O)c1"
93.6

Report growth for "Cc1cc2nc(-c3c(-c4ccc(F)cc4)nc4sccn34)[nH]c2cc1C"
102

Report growth for "C=C(CN1CC=CCC1)[C@@H]1CC[C@]2(CO)CC[C@]3(C)[C@H](CC[C@@H]4[C@@]5(C)CC[C@H](O)C(C)(C)[C@@H]5CC[C@]43C)[C@@H]12"
116

====

test system: DU-145 prostate; assay: NCI-60 one-dose screen, 48 h; conditions: 10 µM unless noted
The panel holds about 83,000 compounds, 20% with a hit somewhere; the sample as a whole holds those more often. Active and inactive are the calls of the source. How the source made its calls: active means growth percent below 10; inactive means the rest.
I would appreciate it if you answered using one of these outcomes: True (active), False (inactive)

Hi, sorry to bother you, what did the test record for COc1cc(OC)cc(C2C(C#N)=C(N)Oc3c2ccc2ccc(O)cc32)c1 (centres undefined) ?
False

Hi, sorry to bother you, what did the test record for "CCCCn1sc(=O)n(Cc2ccc(CNC(=O)OCc3ccc4c(Br)cc(Br)c(O)c4n3)cc2)c1=O" ?
True

Hi, sorry to bother you, what did the test record for "CCOC(=O)c1c2c(n3c1NCC3)-c1ccccc1C2=O" ?
False

Hi, sorry to bother you, what did the test record for COc1ccc(NC(=O)c2sc3nc(C)c(C(O)c4ccccc4)cc3c2N)cc1 (centres undefined) ?
False

Hi, sorry to bother you, what did the test record for "Fc1ccc(COc2ccc(Nc3ncnc4sc5c(c34)CCCC5)cc2)cc1" ?
False

Hi, sorry to bother you, what did the test record for "CCNCc1ccc(O)c2ncccc12" ?
False

Hi, sorry to bother you, what did the test record for "CN1CCN(Cc2ccc(NC(=O)c3cncc(C#Cc4cncc5[nH]ncc45)c3)cc2C(F)(F)F)CC1" ?
False

Hi, sorry to bother you, what did the test record for "Cc1cc(C)cc(Nc2ccc([N+](=O)[O-])c(NCCN3CCOCC3)n2)c1" ?
True

Hi, sorry to bother you, what did the test record for "Cc1ccc2[nH]c(-c3ccc(S(C)(=O)=O)cc3)c(/C=N/N=C(N)N)c2c1" ?
False

Hi, sorry to bother you, what did the test record for "COc1ccc(/C=C/C(=O)c2ccc(NC(=O)CSc3nnc(-c4cc(-c5ccccc5)nc5ccccc45)n3-c3ccccc3)cc2)cc1" ?
False

Hi, sorry to bother you, what did the test record for "Cc1ccc(/C=C2\CN(C(=O)C(Cl)Cl)C/C(=C\c3ccc(C)cc3)C2=O)cc1" ?
True

Hi, sorry to bother you, what did the test record for "Oc1c(CN2CCCC2)cc(COCc2ccccc2)c2cccnc12" ?
False

Hi, sorry to bother you, what did the test record for "Cc1ccc(C)n1/C=C/n1c(C)ccc1C" ?
False

Hi, sorry to bother you, what did the test record for "COc1ccc(Nc2ncc(C(N)=O)c(NCCCNC(=O)C3CCC3)n2)cc1" ?
False

Hi, sorry to bother you, what did the test record for "C=C1C(=O)O[C@H]2[C@H]1CC/C(COC(=O)NCCCCCCCCNC(=O)OC/C1=C/CC[C@@]3(C)O[C@H]3[C@H]3OC(=O)C(=C)[C@@H]3CC1)=C\CC[C@@]1(C)O[C@@H]21" ?
True

Hi, sorry to bother you, what did the test record for "COc1cc(/C=C/c2cc(/C=C/c3ccc(O)c(OC)c3)n(C(=O)Nc3ccc(F)cc3)n2)ccc1O" ?
True

Hi, sorry to bother you, what did the test record for "NS(=O)(=O)c1ccc(N/C=C/C(=O)c2cc3ccccc3oc2=O)cc1" ?
False

Hi, sorry to bother you, what did the test record for "C=C1C(=O)O[C@H]2[C@H]1CC/C(Cn1cc(-c3cc(C(F)(F)F)cc(C(F)(F)F)c3)nn1)=C\CC[C@@]1(C)O[C@@H]21" ?
True

Hi, sorry to bother you, what did the test record for "COc1ccc(-c2cc(-c3ccc(OC)cc3)nc(NCCCNc3ccnc4cc(Cl)ccc34)n2)cc1" ?
True
